src = PubChem BioAssay (NCI)

PROTOCOL_DETAILS: NCI Yeast Anticancer Drug Screen. Data for the rad50EPP+ strain (AID 151);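 further: 0% = growth of vehicle-treated control cultures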
MEASUREMENT_PARAMETERS: S. cerevisiae rad50 mutant strain, at 1.2 µM, active compounds read high
The panel holds about 79,000 compounds, 15% with a hit somewhere; the sample as a whole holds those more often.
RECORDED_ENDPOINT: growth inhibition (%)

> print(dat)
                                    compound  recorded.endpoint  result.value
 1               O=[N+]([O-])c1ccc(=S)[nH]c1  growth inhibition             0
 2  Cc1c(C2=C(Br)C(=O)N(C)C2=O)c(=O)n(C)c(=O)n1C  growth inhibition             0
 3                      CCCCCCCCCCCCCCCCCCNC  growth inhibition            14
 4   S=C(Nc1ccc(Cl)c(Cl)c1)SCc1ccc2c(c1)OCO2  growth inhibition            27
 5              Cc1ccc(CSC(N)=Nc2ccccc2)cc1C  growth inhibition             4
 6  O=C1OC(=O)C2CCCC3CCCC1C32 (stereo not drawn)  growth inhibition            42
 7  OC1(c2ccccc2)CSC2=Nc3ccccc3C3CCN1N23 (stereo not drawn)  growth inhibition           -29
 8               CSC(=S)N/N=C(\C)c1cccc(C)n1  growth inhibition            -3
 9           O=C1c2ccccc2C(=O)c2cc(CBr)ccc21  growth inhibition            27
10  CN(C)Cc1cc(N=Nc2ccc(Cl)cc2)cc(CN(C)C)c1O  growth inhibition            -3
11  CNC(=O)OCc1c(COC(=O)NC)c(-c2ccc(-c3ccccc3)cc2)n(C)c1C  growth inhibition           -33
12  Cc1nn(-c2cc(Cl)ccc2[N+](=O)[O-])c(C)c1Cl  growth inhibition             4
13    Nc1ncncc1C(C1=C(O)COC1=O)C1=C(O)COC1=O  growth inhibition             6
14  O=C(NCCCNCCCNC(=O)c1cc(-c2ccccc2)nc2ccccc12)c1cc(-c2ccccc2)nc2ccccc12  growth inhibition            -1
15      COc1ccc2sc3cccc(NCCN(C)C)c3c(=O)c2c1  growth inhibition             6
16  CCN(CC)CC[n+]1ccc2c(C)c3[nH]c4ccc(O)cc4c3c(C)c2c1  growth inhibition             4
17  N/C(=N\OC(=O)NC(Cl)=C(Cl)Cl)c1cc(C(F)(F)F)cc(C(F)(F)F)c1  growth inhibition           -30
18  CCCCCCCCCCCCCC[N+](C)(CC(=O)[O-])Cc1ccccc1 (stereo not drawn)  growth inhibition             5
19                  O=CC=C(c1ccccc1)c1ccccc1  growth inhibition            20
20  O=C1C2CC[C@@H]3C(=O)C(Cl)(Cl)[C@@H]3CCC2C1(Cl)Cl (stereo partly drawn)  growth inhibition             8
21  CC(C)(CN1CCCCC1)C(=O)CC(SCCS(=O)(=O)O)c1ccc(Br)cc1 (stereo not drawn)  growth inhibition            -2
22  COc1cc2c(c(OC)c1OC)-c1c(cc3c(c1OC)OCO3)CC(C)C(C)(O)C2OC(=O)c1ccccc1 (stereo not drawn)  growth inhibition            -2
23      CCN(CC)CCC(=O)c1ccc(Oc2ccc(F)cc2)cc1  growth inhibition            -9

----------
PROTOCOL_DETAILS: NCI Yeast Anticancer Drug Screen. Data for the rad18 strain (AID 177)
MEASUREMENT_PARAMETERS: S. cerevisiae rad18 mutant growth inhibition; at 11.0 µM
Compounds without any hit were thinned out: in the full panel of roughly 79,000, 15% have a hit. Active and inactive are the calls of the source. Cut-off read from the data, not from the text of the source: active = growth inhibition above about 70%; inactive = the rest.
Outcome codes: yes = active, no = inactive

> print(dat)
                               record.smiles  class
 1                          NC(=O)NN=C(CS)CS     no
 2  CCOC(=O)c1cnc2cc(C(F)(F)F)ccc2c1N=[N+]=[N-]     no
 3  O=[N+]([O-])c1cccc2nc3ccccc3c(NCCCN3CCOCC3)c12    yes
 4        CC(=O)ON1C(=O)c2cccc3cccc(c23)C1=O    yes
 5  CCN(CC)CC[n+]1ccc2c(C)c3[nH]c4ccc(O)cc4c3c(C)c2c1     no
 6            O=C(N=Nc1ccccc1Cl)NNc1ccccc1Cl     no
 7  CN(C)CCn1c2c3ccccc3ccc2c2oc(=O)c3ccccc3c21     no
 8  N#C/C(=C\c1cccc(OCc2ccccc2)c1)c1ccc([N+](=O)[O-])cc1     no
 9                CN1Cc2ccccc2/C=C\c2ccccc21     no
10                   O=S(=O)(CCCl)c1ccccc1Cl    yes
11  NCCNc1ccc(NCCN)c2c1C(=O)c1c(O)ccc(O)c1C2=O     no
12               CCCc1cc(C(=O)OCC)cc(CCC)c1O     no

----------
PROTOCOL_DETAILS: NCI Yeast Anticancer Drug Screen. Data for the mlh1 rad18 strain (AID 175)
MEASUREMENT_PARAMETERS: S. cerevisiae mlh1 rad18 strain growth inhibition; at 5.0 µM (retest, dose inferred, filed as 0.5)
This is part of a sample that, as a whole, favours compounds with a hit. Of some 79,000 tested, about 15% had one in any assay. Calls of active or inactive are those of the source. Cut-off read from the data, not from the text of the source: active = growth inhibition above about 70%; inactive = the rest.
Outcome codes: class 1 (active), class 0 (inactive)

> print(dat)
                                    molecule    class
 1                     Cn1ccnc1Oc1ccc(Cl)cc1  class 0
 2  COc1ccccc1C(=O)OCC1CCCN2CCCCC12 (stereo not drawn)  class 0
 3              O=C1c2ccccc2-c2nc3ccccc3nc21  class 1
 4  COC(=O)C1=C(C)NC(C)=C(C(=O)OC)C1c1cccc(/[N+]([O-])=C/c2ccccc2)c1  class 0
 5              Cc1ccc(CSC(N)=Nc2ccccc2)cc1C  class 0
 6  O=C1CSC(/C=C/c2ccccc2)N1c1ccc(-c2ccc(-n3c(-c4ccccc4)nc4ccccc4c3=O)cc2)cc1 (stereo not drawn)  class 0
 7   Nc1ccccc1CC(O)C(=O)O (stereo not drawn)  class 0
 8           O=C(c1cc(Br)ccc1O)c1cc(Br)ccc1O  class 0
 9                   O=Cc1cccc2ccc3ccccc3c12  class 0
10    Nc1ncncc1C(C1=C(O)COC1=O)C1=C(O)COC1=O  class 0
11  O=[N+]([O-])c1cccc2nc3ccccc3c(NCCCN3CCOCC3)c12  class 1
12  O=C(O)C1CCCCC1c1c2ccc(=O)c(O)c-2oc2c(O)c(O)ccc12 (stereo not drawn)  class 0
13             COc1ccc(O)c(/C=N\Nc2ccccc2)c1  class 0
14  CC(=O)Nc1ccc2c(c1)C(=Nc1ccc(C(=O)O)cc1)c1ccccc1-2  class 0
15                      CCCCCCCCCCCCCCCCCCNC  class 0
16  CC1(C)[C@@H]2CC[C@]1(C)[C@H](OC(=O)CSC#N)C2  class 0
17  O=C1C2C=CC1C1C(=O)OC(=O)C21 (stereo not drawn)  class 0
18  CC(=O)Oc1ccc2c(c1)Cc1cc(N=C3C=CC(=O)O3)ccc1-2  class 0
19  CCCCCCCCCCCCCCC(C(=O)[O-])[n+]1ccccc1 (stereo not drawn)  class 0
20   COC(=O)c1cc(-c2ccc(C)cc2)[nH]c(=O)c1C#N  class 0
21            CN(C)c1nc2sc3c(c2c(=O)o1)CCCC3  class 0
22  C(=C\c1ccccc1)/COc1ccccc1C(N1CCOCC1)n1nc2ccccc2n1 (stereo not drawn)  class 0
23            CC(C)/C(Cl)=N\OC(=O)Nc1ccccc1F  class 0
24  CCOC(=O)c1cc(-c2ccc(Cl)cc2)c([N+](=O)[O-])n1C  class 0
25  COc1cc2c(cc1[N+](=O)[O-])C(=O)C(Br)(Br)CCC2  class 0
26  CCC[CH2][Ge]([CH2]CCC)([CH2]CCC)[O]C(=O)C(OC)c1ccccc1 (stereo not drawn)  class 0
27         OC(c1ccc(F)cc1)(c1ccc(F)cc1)C1CC1  class 0
28               S=c1[nH]nc(Nc2ccc(Cl)cc2)s1  class 0
29            CC1CCN(CCC(=O)c2ccc(Cl)cc2)CC1  class 0
30     CC(/C=C/c1ccc(Cl)cc1)=N\NC(=S)NCC(C)C  class 0
31  O=C(O)c1cccc(-c2c3ccc(=O)cc-3oc3cc(O)ccc23)c1  class 1
32              C=C(CN(C)C)C(=O)c1cc(C)ccc1C  class 0
33                  N#CSc1ccc(S(N)(=O)=O)cc1  class 0
34  CCCCCCCCCCCCCCCCCCOCC(O)COP(=O)(O)OCC1OC(n2cc(F)c(=O)[nH]c2=O)CC1O (stereo not drawn)  class 0
35     Cc1cc(CO)c(O)c(CNCc2cc(C)cc(CO)c2O)c1  class 0
36  CC[C@@]1(O)C(=O)OCc2c1cc1n(c2=O)Cc2cc3c(CN(C)C)c(O)ccc3nc2-1  class 0
37               c1ccc2c(c1)sc1cc3ccncc3cc12  class 0
38  O=C(Cc1csc2[n+]1C(=O)/C(=C/c1ccc(Cl)cc1)S2)Nc1ccccc1  class 0
39       CC(=O)[O][Bi]([c]1ccccc1)[c]1ccccc1  class 0
40         Clc1cccc(C(Nc2nncs2)Nc2nncs2)c1Cl  class 0
41  Cc1[nH]c2ccccc2c1C(c1ccc(N)cc1)c1c(C)[nH]c2ccccc12  class 0
42  COc1ccccc1N=NC(C(=O)c1ccccc1)C(=O)c1ccccc1  class 0
43     COc1cc2ccc(/C=C\[N+](=O)[O-])cc2cc1OC  class 0
44  Cc1cc(O)cc(O)c1N=Nc1ccc([N+](=O)[O-])cc1  class 0
45            Cc1nc(-c2ccccc2)c(-c2ccccc2)s1  class 1
46  Cc1ccc(-n2cc(-c3ccc(Cl)cc3)c(C#N)c2N)cc1  class 0
47  CCC(C)COC(=O)c1ccc(N=Cc2ccc(C=Nc3ccc(C(=O)OCC(C)CC)cc3)cc2)cc1 (stereo not drawn)  class 0
48  OC(COc1cccc2ccccc12)CN1CCOCC1 (stereo not drawn)  class 0
